Target: Leucine aminopeptidase (Plasmodium falciparum (isolate 3D7)) (UniProt Q8IL11)
Sequence (Q8IL11 whole entry, looked up): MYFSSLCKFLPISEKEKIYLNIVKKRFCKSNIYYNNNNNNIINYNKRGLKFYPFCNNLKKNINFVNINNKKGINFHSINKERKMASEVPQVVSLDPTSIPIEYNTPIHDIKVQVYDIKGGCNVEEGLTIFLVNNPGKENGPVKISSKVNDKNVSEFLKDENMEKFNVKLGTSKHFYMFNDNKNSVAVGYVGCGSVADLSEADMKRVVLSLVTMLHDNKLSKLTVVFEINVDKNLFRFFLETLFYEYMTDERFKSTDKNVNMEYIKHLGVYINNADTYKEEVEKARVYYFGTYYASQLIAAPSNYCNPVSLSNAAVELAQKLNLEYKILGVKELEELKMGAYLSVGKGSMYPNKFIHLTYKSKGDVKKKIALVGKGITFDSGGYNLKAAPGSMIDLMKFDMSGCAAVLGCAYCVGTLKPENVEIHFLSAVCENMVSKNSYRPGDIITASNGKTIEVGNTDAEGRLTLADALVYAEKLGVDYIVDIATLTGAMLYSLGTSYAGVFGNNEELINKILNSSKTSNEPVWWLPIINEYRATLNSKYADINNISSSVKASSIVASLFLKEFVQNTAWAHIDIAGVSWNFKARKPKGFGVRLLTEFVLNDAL
Assay: P. falciparum M17LAP inhibitors, primary screen, biochemical, fluorogenic H-Leu-NHMec substrate, 1536-well (AID 1619);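 also: plate controls were full reaction with DMSO carrier for no effect and no enzyme background for full effect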
Conditions: recombinant M17LAP, H-Leu-NHMec fluorogenic kinetic assay; at 30 µM; stronger effect = higher value
Among all 220,000 compounds or so, about 830 (0.38%) were called active. A selection follows. Potency and affinity values are given separately.
// reported inhibition for each item listed
The response must be a number in % with no trailing unit.

INSERT INTO results (molecule, unit_info, observed_measurement) VALUES
  ('COc1ccccc1NS(=O)(=O)c1ccc(NC(=O)c2ccncc2)cc1', '%', -5.68),
  ('CSc1nc2nc(C)cc(-c3ccccc3)n2n1', '%', -6.85),
  ('CSc1nc2nc(-c3ccccc3)cc(C(F)(F)F)n2n1', '%', -8.74),
  ('COCCNC(=S)N1CCC(Cc2ccccc2)CC1', '%', 1.83);

Inquiry: Item under review: C=CCn1cnc2c(nnn2-c2ccc(Cl)cc2)c1=O . Reported inhibition?
Reply text: 1.25

Inquiry: Item under review: CCN1CCN(CC(O)COCc2ccccc2)CC1 (stereo unspecified) . Reported inhibition?
Reply text: 8.64

Inquiry: Item under review: CCOc1ccc(N2C(=O)CC(NCCc3ccncc3)C2=O)cc1 (stereo unspecified) . Reported inhibition?
Reply text: 3.75

Inquiry: Item under review: O=c1c2c3c(sc2nc2sc(CN4CCCCC4)cn12)CCCC3 . Reported inhibition?
Reply text: -6.38

Inquiry: Item under review: Cc1ccccc1S(=O)(=O)c1cc(C#N)c(=O)[nH]c1N . Reported inhibition?
Reply text: -8.15

Inquiry: Item under review: O=C1CC(=O)C(n2cncn2)C(c2cccc(Cl)c2)C1 (stereo unspecified) . Reported inhibition?
Reply text: -45.4

Inquiry: Item under review: CNC(=S)Nc1cccc(Cl)c1C . Reported inhibition?
Reply text: 0.94

Cited source: PubChem BioAssay AID1619
